Would you kindly list Vd for each of these compounds?
assay: In vivo pharmacokinetics in male C57BL/6 mice (IV and PO); conditions: male, C57BL/6, plasma; mouse, IV, 1 mg/kg; read-out: Vss

For the 3 compounds below, give their Vd values.
1. [2H]C([2H])([2H])N1CCC[C@@H]1Cc1c[nH]c2cccc(O)c12
2. [2H]C([2H])(c1c[nH]c2cccc(O)c12)[C@H]1CCCN1C([2H])([2H])[2H]
3. [2H]C([2H])(c1c[nH]c2cccc(OC)c12)[C@H]1CCCN1C([2H])([2H])[2H]

Response:
3.09 L/kg
1.98 L/kg
1.5 L/kg

---

test: Rat liver microsomes stability with NADPH; conditions: male, rat, microsomes
Would you kindly list microsomal CLint at 2 μM for each of these compounds?
Give bare numbers, in µL/min/mg.

- RECORD_SMILES: "[2H]C([2H])(c1c[nH]c2cccc(OC(=O)CCCCCCC/C=C\\C/C=C\\CCCCC)c12)[C@H]1CCCN1C([2H])([2H])[2H]"
  QUANTITY_NAME: "microsomal CLint at 2 μM"
  RECORDED_RESULT: 28.6

For the 7 compounds below, give their microsomal CLint at 2 μM values.
1. [2H]C([2H])([2H])N1CCC[C@@H]1Cc1c[nH]c2cccc(OC(=O)CCCCCCC/C=C\C/C=C\CCCCC)c12
2. [2H]C([2H])(c1c[nH]c2cccc(O)c12)[C@H]1CCCN1
3. [2H]C([2H])([2H])N1CCC[C@@H]1Cc1c[nH]c2cccc(O)c12
4. [2H]C([2H])(c1c[nH]c2cccc(OC)c12)[C@H]1CCCN1C([2H])([2H])[2H]
5. [2H]C([2H])([2H])N1CCC[C@@H]1Cc1c[nH]c2cccc(F)c12
6. [2H]C([2H])(c1c[nH]c2cccc(O)c12)[C@H]1CCCN1C([2H])([2H])[2H]
7. [2H]C([2H])(c1c[nH]c2cccc(F)c12)[C@H]1CCCN1C([2H])([2H])[2H]

Response:
[35.6, 34.9, 36.8, 113, 25.5, 38, 46.5]

---

assay: Human liver microsomes stability with NADPH; conditions: human, microsomes
QUANTITY_NAME: microsomal CLint at 2 μM (µL/min/mg)
Answers are plain numbers, in µL/min/mg.

- RECORD_SMILES: "[2H]C([2H])([2H])N1CCC[C@@H]1Cc1c[nH]c2cccc(F)c12"
  microsomal CLint at 2 μM / µL/min/mg: 34.5
- RECORD_SMILES: "[2H]C([2H])(c1c[nH]c2cccc(OC)c12)[C@H]1CCCN1C([2H])([2H])[2H]"
  microsomal CLint at 2 μM / µL/min/mg: 10.2
- RECORD_SMILES: "[2H]C([2H])(c1c[nH]c2cccc(F)c12)[C@H]1CCCN1C([2H])([2H])[2H]"
  microsomal CLint at 2 μM / µL/min/mg: 38.1

For the 4 molecules below, give their microsomal CLint at 2 μM values.
1. [2H]C([2H])([2H])N1CCC[C@@H]1Cc1c[nH]c2cccc(O)c12
2. [2H]C([2H])(c1c[nH]c2cccc(O)c12)[C@H]1CCCN1C([2H])([2H])[2H]
3. [2H]C([2H])(c1c[nH]c2cccc(O)c12)[C@H]1CCCN1
4. [2H]C([2H])([2H])N1CCC[C@@H]1Cc1c[nH]c2cccc(OC(=O)CCCCCCC/C=C\C/C=C\CCCCC)c12

Response:
1. 6.57
2. 8.23
3. 12.2
4. 18.9

Query: Hello, please tell me recorded microsomal CLint at 2 μM for this one: `[2H]C([2H])(c1c[nH]c2cccc(OC(=O)CCCCCCC/C=C\C/C=C\CCCCC)c12)[C@H]1CCCN1C([2H])([2H])[2H]`
Response: 4.72

---

target: human 5-HT2A (h5-HT2A) receptor (Homo sapiens (Human), UniProt P28223); assay: FLIPR calcium assay, human 5-HT2A receptor, agonist mode; assay type: cell-based
pEC50: −log10 of the molar value.
QUANTITY_NAME: pEC50

- RECORD_SMILES: "[2H]C([2H])(c1c[nH]c2cccc(OCc3ccccc3)c12)[C@H]1CCCN1C([2H])([2H])[2H]"
  RECORDED_RESULT: "< 5.00"
- RECORD_SMILES: "[2H]C([2H])(c1c[nH]c2cccc(O)c12)[C@H]1CCCN1C([2H])([2H])[2H]"
  RECORDED_RESULT: "> 6.00"
- RECORD_SMILES: "[2H]C([2H])(c1c[nH]c2cccc(F)c12)[C@H]1CCCN1C([2H])([2H])[2H]"
  RECORDED_RESULT: "> 6.00"
- RECORD_SMILES: "[2H]C([2H])([2H])N1CCC[C@H]1Cc1c[nH]c2cccc(O)c12"
  RECORDED_RESULT: "5.00 to 6.00"
- RECORD_SMILES: "CN1CCC[C@@H]1Cc1c[nH]c2cccc(O)c12"
  RECORDED_RESULT: "> 6.00"

For the 5 compounds below, give their pEC50 values.
1. [2H]C([2H])(c1c[nH]c2cccc(O)c12)[C@@H]1CCCN1
2. [2H]C([2H])(c1c[nH]c2cccc(OC)c12)[C@H]1CCCN1C([2H])([2H])[2H]
3. [2H]C([2H])(c1c[nH]c2cccc(O)c12)[C@H]1CCCN1
4. [2H]C([2H])(c1c[nH]c2cccc(F)c12)[C@@H]1CCCN1C([2H])([2H])[2H]
5. [2H]C([2H])([2H])N1CCC[C@H]1Cc1c[nH]c2cccc(OCc3ccccc3)c12

Response:
> 6.00
> 6.00
> 6.00
< 5.00
< 5.00

---

Assay: In vivo pharmacokinetics in male C57BL/6 mice (IV and PO)
Conditions: male, C57BL/6, plasma; mouse, PO, 10 mg/kg; read-out: AUC0-tlast
Protocol: Example 26: In Vivo Assessment of the Pharmacokinetics in Mice and Rats […] Male C57BL/6 mice (25-30 g) from Charles River Labs were acclimatized for a minimum of 5 days prior to dosing. Body weights will be recorded on the day of dosing. Animals dosed p.o. were deprived of food overnight and fed ˜2 h following dosing. Formulations were administered intravenously (i.v.) via the tail vein or orally (p.o.) by gavage with disposable feeding needles. Serial blood samples were collected via tail snip. […]
QUANTITY_NAME: AUC(0-t) (ng·h/mL)
Give bare numbers, in ng·h/mL.

- RECORD_SMILES: "[2H]C([2H])(c1c[nH]c2cccc(OC)c12)[C@H]1CCCN1C([2H])([2H])[2H]"
  AUC(0-t) / ng·h/mL: 210

For the 2 compounds below, give their AUC(0-t) values.
1. [2H]C([2H])(c1c[nH]c2cccc(O)c12)[C@H]1CCCN1C([2H])([2H])[2H]
2. [2H]C([2H])([2H])N1CCC[C@@H]1Cc1c[nH]c2cccc(O)c12

Response:
1. 477
2. 271

---

Experiment: In vivo pharmacokinetics in male C57BL/6 mice (IV and PO)
Settings: male, C57BL/6, plasma; mouse, PO, 10 mg/kg
Method: Example 26: In Vivo Assessment of the Pharmacokinetics in Mice and Rats […] Male C57BL/6 mice (25-30 g) from Charles River Labs were acclimatized for a minimum of 5 days prior to dosing. Body weights will be recorded on the day of dosing. Animals dosed p.o. were deprived of food overnight and fed ˜2 h following dosing. Formulations were administered intravenously (i.v.) via the tail vein or orally (p.o.) by gavage with disposable feeding needles. Serial blood samples were collected via tail snip. […]
QUANTITY_NAME: Tmax (min)
Answers are plain numbers, in min.

- MOLECULE: "[2H]C([2H])([2H])N1CCC[C@@H]1Cc1c[nH]c2cccc(O)c12 [Compound I-2]"
  RECORDED_RESULT: 15
- MOLECULE: "[2H]C([2H])(c1c[nH]c2cccc(OC)c12)[C@H]1CCCN1C([2H])([2H])[2H] [Compound I-39]"
  RECORDED_RESULT: 30

Then there is this molecule:
Query: Hello, please tell me recorded Tmax for this one: [2H]C([2H])(c1c[nH]c2cccc(O)c12)[C@H]1CCCN1C([2H])([2H])[2H] [Compound I-44]
Response: 45

---

test: In vivo pharmacokinetics in male C57BL/6 mice (IV and PO); settings: male, C57BL/6, plasma; mouse, IV, 1 mg/kg; read-out: Apparent t1/2 (converted)
QUANTITY_NAME: half-life (h)
Give bare numbers, in h.

Worked examples, 2 compounds total:
- RECORD_SMILES: "[2H]C([2H])(c1c[nH]c2cccc(OC)c12)[C@H]1CCCN1C([2H])([2H])[2H]"
  QUANTITY_NAME: "half-life"
  MEASURE_UNIT: "h"
  RECORDED_RESULT: 2.51
- RECORD_SMILES: "[2H]C([2H])([2H])N1CCC[C@@H]1Cc1c[nH]c2cccc(O)c12"
  QUANTITY_NAME: "half-life"
  MEASURE_UNIT: "h"
  RECORDED_RESULT: 3.09

Query: Hello, please tell me recorded half-life for this one: `[2H]C([2H])(c1c[nH]c2cccc(O)c12)[C@H]1CCCN1C([2H])([2H])[2H]`
Response: 1.18

From: patent US11453689B2
